Biological target: T1, human IL-18BP (human, UniProt O95998 31-194)
T1 construct: UniProt printed as 095998; also called hIL-18BP
T1 sequence: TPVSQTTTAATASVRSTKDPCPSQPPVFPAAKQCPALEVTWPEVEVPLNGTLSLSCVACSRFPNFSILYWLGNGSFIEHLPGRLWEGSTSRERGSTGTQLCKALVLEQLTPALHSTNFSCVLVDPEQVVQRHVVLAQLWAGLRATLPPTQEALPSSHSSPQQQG
Test: BLI, apparent KD
pKd: −log10 of the molar value.
Measured pKd values are reported for all entries that follow.
observation_type: pKd

>>> numeric_value("SA301a HC-S54Y (antibody, name in Kabat numbering, V domains shown, IgG1 kappa) VH: QVQLQESGPGLVKPSQTLSLTCTVSGYSITSDYNSHWIRQPPGKGLEWIGYIHYYGSTNYNPSLKSRVTISRDTSKNQFSLKLSSVTAADTAVYYCARNYGSIYVNYFDYWGQGTLVTVSS VL: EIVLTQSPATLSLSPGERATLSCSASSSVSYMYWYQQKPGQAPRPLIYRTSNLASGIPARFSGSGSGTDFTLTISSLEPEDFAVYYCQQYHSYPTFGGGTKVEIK")
8.33
>>> numeric_value("SA301a HC-Y53G (antibody, name in Kabat numbering, V domains shown, IgG1 kappa) VH: QVQLQESGPGLVKPSQTLSLTCTVSGYSITSDYNSHWIRQPPGKGLEWIGYIHGSGSTNYNPSLKSRVTISRDTSKNQFSLKLSSVTAADTAVYYCARNYGSIYVNYFDYWGQGTLVTVSS VL: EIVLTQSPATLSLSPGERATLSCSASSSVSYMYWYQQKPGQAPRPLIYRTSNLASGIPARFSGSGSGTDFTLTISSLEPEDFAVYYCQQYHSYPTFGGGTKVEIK")
8.73
